- EXPERIMENTAL_TARGET: protein phosphatase 1 (PP1) (Homo sapiens, UniProt P36873)
- Construct: made in house; host or cells: E. coli BL21(DE3)
- Sequence (P36873 whole entry): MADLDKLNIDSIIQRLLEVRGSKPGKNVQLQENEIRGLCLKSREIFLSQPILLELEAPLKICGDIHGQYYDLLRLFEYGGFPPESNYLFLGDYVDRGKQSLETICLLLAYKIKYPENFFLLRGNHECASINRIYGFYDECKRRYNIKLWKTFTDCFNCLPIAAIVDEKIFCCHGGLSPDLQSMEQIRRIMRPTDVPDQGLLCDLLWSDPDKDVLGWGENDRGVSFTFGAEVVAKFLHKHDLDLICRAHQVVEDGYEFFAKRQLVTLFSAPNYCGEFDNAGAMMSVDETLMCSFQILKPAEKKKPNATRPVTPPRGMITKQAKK
- PROTOCOL_DETAILS: Fluorescence polarization binding of FITC-labelled peptides to PP1
- Design: species or system H. sapiens
- PROTOCOL_CONDITIONS: FITC N-terminal labeled peptide 10 nM in PBS pH 7.4, 5 min at room temperature, normalized to extrapolated Bmax, non-linear regression, three independent experiments
QUANTITY: Kd
Provide a numeric answer, followed by its unit.

Kd recorded for this sequence, VSASPAAVAAPV [Mutant] , is 65 µM

---

- EXPERIMENTAL_TARGET: abl-SH3 domain (Homo sapiens)
- Construct: preparation of human abl-SH3 domain [9]; made in house
- Sequence (P00519 61-121 limits assumed): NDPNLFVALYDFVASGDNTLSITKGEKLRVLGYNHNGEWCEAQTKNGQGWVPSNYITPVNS
- PROTOCOL_DETAILS: Fluorescence polarization preliminary test with abl-SH3 binding peptide
- PROTOCOL_CONDITIONS: FITC N-terminal labeled peptide
Where no end group is shown, it is not given here.
QUANTITY: pKd
The value called pKd is obtained by taking minus log10 of the concentration in mol/L.

Kindly note: abl-SH3 domain (Homo sapiens), GAPTYSPPPPP [GAPTYSPPPPP] , pKd value reported: 5.52
